Target: aurora A kinase (AURKA) (Homo sapiens, UniProt O14965)
Construct: purchased BPS Bioscience (assay run externally by the vendor)
Sequence (O14965 whole entry): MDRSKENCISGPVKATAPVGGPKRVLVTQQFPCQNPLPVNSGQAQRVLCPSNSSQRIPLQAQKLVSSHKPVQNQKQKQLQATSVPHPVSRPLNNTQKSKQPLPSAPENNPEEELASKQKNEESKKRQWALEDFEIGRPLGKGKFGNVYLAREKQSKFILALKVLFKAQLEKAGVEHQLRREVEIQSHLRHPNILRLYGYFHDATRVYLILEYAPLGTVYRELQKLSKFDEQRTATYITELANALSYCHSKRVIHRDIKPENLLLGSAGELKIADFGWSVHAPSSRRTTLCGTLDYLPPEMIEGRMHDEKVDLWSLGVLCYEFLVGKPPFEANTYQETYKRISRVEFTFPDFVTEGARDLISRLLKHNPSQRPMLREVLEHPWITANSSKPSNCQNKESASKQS
Assay: ADP-Glo kinase assay, Aurora A
Format: biochemical
Settings: Log[nM] 1.0; Set3
measure: Aurora A % Activity Set3 (%)

Clc1cccc(Nc2ncnc3[nH]ccc23)c1 = 101
Cc1ccccc1Nc1ncnc2[nH]ccc12 = 102
Clc1ccc(Nc2ncnc3[nH]ccc23)cc1 = 100
Cc1ccc(Nc2ncnc3[nH]ccc23)cc1 = 107
c1ccc(Cc2ccc(Nc3ncnc4[nH]ccc34)cc2)cc1 = 101
Clc1ccccc1Nc1ncnc2[nH]ccc12 = 98
COc1ccc(Nc2ncnc3[nH]ccc23)cc1 = 91
Fc1cc(Nc2ncnc3[nH]ccc23)ccc1Cl = 101
Clc1ccc(Nc2ncnc3[nH]ccc23)cc1Br = 99
